# measurement notes: Cellular Toxicity (caspase-3) Hek293 (AID 664);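 also: cells exposed to compound for 16 h at 37 °C before readout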
# setup conditions: HEK293 caspase-3 activation, DMSO = 0%, 100 µM tamoxifen = 100%; at 92.2 µM (top of the series)
Results filed as inconclusive are left out.

compound: Nc1cccc(O)c1
readout units: %
caspase-3 activation: 1.1
//
compound: CC1CCCO1 (stereo not given)
readout units: %
caspase-3 activation: -1.6
//
compound: CC(C)(c1cc(Br)c(OCC(Br)CBr)c(Br)c1)c1cc(Br)c(OCC(Br)CBr)c(Br)c1 (stereo not given)
readout units: %
caspase-3 activation: 16.5
//
compound: O=C(O)/C=C/C(=O)O
readout units: %
caspase-3 activation: -1.62
//
compound: CCCOCC(C)OCC(C)O (stereo not given)
readout units: %
caspase-3 activation: 0.323
